Just for reference, PubChem BioAssay (NCATS) is where these values come from.

- Test system: C33A
- protocol-text: Primary qHTS to identify gynecologic anti-cancer compounds using libraries of approved drugs and bioactive compounds (AID 1345084); note: nearly all actives have a fitted effect of over 55% in size; note: potency is the fitted concentration of half-maximal effect
- condition-label: Gynecologic cancer cell panel viability, ATPlite luminescence, 48 h; series mostly up to 57.5 µM
Inconclusive results are not listed. Active and inactive are the calls of the source. Calls come from the whole dose curve; as a rule, active = well fitted cell-killing curve with a large enough effect; inconclusive = small, poorly fitted or top-dose-only effect, or effect the other way; inactive = flat fitted curve, though single readings scatter.
So I've got a bunch of compounds here, and I need their Potency values.

For orientation, consider the following solved cases.
INSERT INTO measurements (compound, observable, reading) VALUES
  ('CC(C)(C)c1ccc(S(=O)(=O)NCc2ccc(C(=O)Nc3cccnc3)cc2)cc1', 'Potency', '7940 nM (active)'),
  ('O=[N+]([O-])c1cccc2[nH]c(CNc3nc(N4CCOCC4)nc4c3ncn4-c3ccsc3)nc12', 'Potency', '178 nM (active)');

Could you report Potency for every entry in the following list?
1. NC1CCC(Nc2cc(-c3cccc(NCc4cccc(F)c4)n3)c(Cl)cn2)CC1 (stereo not given)
2. O=S(=O)(NCC1CC1)c1ccc(Nc2nccc(N3CCCc4cc(O)ccc43)n2)cc1
3. NC1(C(=O)NC(CCO)c2ccc(Cl)cc2)CCN(c2ncnc3[nH]ccc23)CC1 (stereo not given)

1260 nM (active)
31600 nM (active)
2240 nM (active)

* * *

- Tested on: Tov-21-G
- protocol-text: Primary qHTS to identify gynecologic anti-cancer compounds using libraries of approved drugs and bioactive compounds (AID 1345084); note: nearly all actives have a fitted effect of over 55% in size; for activity change, negative = cytotoxicity: % is set by controls: 0 for no effect and ±100 for the full control effect
- condition-label: Gynecologic cancer cell panel viability, ATPlite luminescence, 48 h; series mostly up to 57.5 µM
Inconclusive results are not listed. Activity calls are given as the source filed them. Calls follow the shape of the dose curve; as a rule, active = well fitted cell-killing curve with a large enough effect; inconclusive = small, poorly fitted or top-dose-only effect, or effect the other way; inactive = flat fitted curve, though single readings scatter.
observable: activity change, negative = cytotoxicity

For orientation, consider the following solved cases.
INSERT INTO measurements (molecule, observable, reading) VALUES
  ('CC1OC(O[C@H]2CC[C@@]3(C)C(CC[C@]4(C)C3CC=C3C5CC(C)(C)CC[C@]5(C(=O)OC5OC(CO)C(OC6OC(COC7OCC(O)C(O)C7O)C(O)C(O)C6O)C(O)C5O)CC[C@]34C)C2(C)C)C(O)C(O)C1OC1OCC(OC2OCC(O)C(O)C2O)C(O)C1O (stereo partly drawn)', 'activity change, negative = cytotoxicity', '-0.908% [at 6.55 µM] (inactive)'),
  ('CC1(C=O)CC[C@]2(C(=O)O[C@@H]3O[C@H](CO)[C@@H](O)[C@H](O)[C@H]3O)CC[C@]3(C)C(=CCC4[C@@]5(C)C[C@H](O)[C@H](O[C@@H]6OC[C@@H](O)[C@H](O)[C@H]6O)[C@@](C)(CO)C5CC[C@]43C)C2C1 (stereo partly drawn)', 'activity change, negative = cytotoxicity', '-1.76% [at 11.6 µM] (inactive)');

Could you report activity change, negative = cytotoxicity for every entry in the following list?
1. CC1(C)CC[C@]2(CO[C@@H]3O[C@H](CO)[C@@H](O)[C@H](O)[C@H]3O)[C@@H](O)C[C@]3(C)C(=CCC4[C@@]5(C)CC[C@H](O[C@@H]6O[C@H](CO[C@@H]7O[C@H](CO[C@@H]8OC[C@@H](O)[C@H](O)[C@H]8O)[C@@H](O)[C@H](O)[C@H]7O)[C@@H](O)[C@H](O)[C@H]6O)C(C)(C)C5CC[C@]43C)[C@@H]2C1 (stereo partly drawn)
2. O=C(O)C1CN(Cc2ccc(-c3nc4cc(Cc5ccccc5F)ccc4s3)c(F)c2)C1
3. CC(C)C[C@H](CC(=O)NO)C(=O)N[C@H](C(=O)N[C@@H](C)C(=O)NCCN)C(C)(C)C
4. CC(=O)N[C@@H](CCCCN)C(=O)N(C)[C@@H](CC(C)C)C(=O)N[C@H](C(=O)N(C)[C@@H](Cc1ccccc1)C(=O)N[C@H](Cc1ccccc1)C(N)=O)C(C)C
5. CC1(C)CC[C@]2(C(=O)O)[C@H](O)C[C@]3(C)C(=CCC4[C@@]5(C)CC[C@H](O[C@@H]6O[C@H](CO[C@@H]7OC[C@H](O)[C@H](O)[C@H]7O[C@@H]7OC[C@@H](O)[C@H](O)[C@H]7O)[C@@H](O)[C@H](O)[C@H]6O[C@@H]6O[C@H](CO)[C@@H](O)[C@H](O)[C@H]6O)C(C)(C)C5CC[C@]43C)[C@@H]2C1 (stereo partly drawn)
6. C[C@@H]1O[C@@H](O[C@@H]2[C@@H](O)[C@H](O[C@H]3[C@H](O[C@H]4CC[C@@]5(C)C(CC[C@]6(C)C5CC=C5[C@@H]7CC(C)(C)CC[C@]7(C(=O)O[C@@H]7O[C@H](CO)[C@@H](O)[C@H](O)[C@H]7O[C@@H]7O[C@@H](C)[C@H](O[C@@H]8O[C@@H](C)[C@H](O)[C@@H](O)[C@H]8O)[C@@H](O)[C@H]7O)CC[C@]56C)[C@@]4(C)CO)O[C@H](C(=O)O)[C@@H](O)[C@@H]3O)O[C@H](CO)[C@H]2O)[C@H](O)[C@H](O)[C@H]1O (stereo partly drawn)

1. 4.01% [at 11.6 µM] (inactive)
2. 0.219% [at 11.6 µM] (inactive)
3. 7.8% [at 11.6 µM] (inactive)
4. 3.25% [at 6.55 µM] (inactive)
5. -13.8% [at 11.6 µM] (inactive)
6. -1.58% [at 6.55 µM] (inactive)

* * *

- Test system: HEK293
- protocol-text: Cytotoxic Profiling of Annotated Libraries Using Quantitative High-Throughput Screening (AID 1296008); note: % is set by controls: 0 for no effect and ±100 for the full control effect; nearly all actives have a fitted effect of over 60% in size
- condition-label: Five cell lines viability, CellTiter-Glo ATP luminescence, 48-72 h; stronger effect = lower value
Records with an inconclusive call do not appear.
So I've got a bunch of compounds here, and I need their max response values.
One number for each entry, in %.

For orientation, consider the following solved cases.
INSERT INTO assay_data (compound, reading) VALUES
  ('C/C(=C/CO)CC[C@@H]1[C@@](C)(O)CCC2C(C)(C)CCC[C@]21C (stereo partly drawn)', 4.02),
  ('CC1C(=O)CC2C3CCC(C(=O)O)C12CC3(C)CO (stereo not drawn)', 0.671);

Could you report max response for every entry in the following list?
1. CC(C)=CCC/C(C)=C/CC/C(C)=C/COC1OC(COC2OCC(OC3OCC(O)C(O)C3O)C(O)C2O)C(O)C(OC2OC(C)C(OC3OC(C)C(OC4OCC(OC5OC(C)C(O)C(O)C5O)C(O)C4O)C(O)C3O)C(O)C2O)C1O (stereo not drawn)
2. CC(C(O)/C=C/C(C)(C)O)C1CCC2(C)C3C(=O)C=C4C(CCC(O)C4(C)C)C3(C)CCC12C (stereo not drawn)

4.79
-3.03

Could you report max response for every entry in the following list?
1. N#Cc1ccc(C(=O)N2CCC3(CC2)N=C(N)c2c(F)ccc(F)c2N3)cn1
2. CC1=CC2C(CC1OC1OC(CO)C(O)C(O)C1O)C(C)CC(=O)C2C(C)C (stereo not drawn)

1: -18.7; 2: -0.187

Could you report max response for every entry in the following list?
1. CC(=O)OC1C(O)C2C(C)C3=CC(=O)OC3(O)CC2C2(C)CCCC(C)(CO)C12 (stereo not drawn)
2. CC(C)C(CO)Nc1nc(Nc2ccc(C(=O)O)c(Cl)c2)c2ncn(C(C)C)c2n1 (stereo not drawn)

1. -10
2. -4.16

* * *

- study-target: Glutathione peroxidase 1 (Homo sapiens) (UniProt P07203)
- Sequence (P07203 whole entry, looked up): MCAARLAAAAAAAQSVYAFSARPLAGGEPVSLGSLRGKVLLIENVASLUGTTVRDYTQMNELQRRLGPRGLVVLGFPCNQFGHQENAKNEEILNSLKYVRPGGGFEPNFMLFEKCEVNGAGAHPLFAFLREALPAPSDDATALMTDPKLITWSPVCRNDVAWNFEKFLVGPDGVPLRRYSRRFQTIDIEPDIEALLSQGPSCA
- protocol-text: Primary qHTS Assay for Inhibitors of Recombinant Selenoprotein Glutathione Peroxidase 1 (GPX1) (AID 1845191); note: nearly all actives have a fitted effect of over 65% in size; for activity, negative = inhibition: % is set by controls: 0 for no effect and ±100 for the full control effect
- condition-label: recombinant GPX1, GR-coupled NADPH fluorescence, 15 min; series mostly up to 48.8 µM
Records with an inconclusive call do not appear. The source made the active and inactive calls. Calls come from the whole dose curve; as a rule, active = well fitted inhibition curve with a large enough effect; inconclusive = small, poorly fitted or top-dose-only effect; inactive = flat fitted curve, though single readings scatter.
observable: activity, negative = inhibition

INSERT INTO measurements (compound, study_target, observable, reading) VALUES
  ('C=C[C@H]1[C@H](O[C@@H]2O[C@H](CO)[C@@H](O)[C@H](O)[C@H]2O)OC=C(C(=O)OC)[C@H]1CCOC(=O)c1cc(O)c(O)c(O)c1', 'Glutathione peroxidase 1 (Homo sapiens) (UniProt P07203)', 'activity, negative = inhibition', 'inactive'),
  ('COC(=O)C[C@H]1C(C)(C)[C@H](OC(=O)C(C)C)[C@@]2(O)C(=O)[C@]1(C)C1CC[C@]3(C)C(CC(=O)O[C@H]3c3ccoc3)[C@]13O[C@@H]32 (stereo partly specified)', 'Glutathione peroxidase 1 (Homo sapiens) (UniProt P07203)', 'activity, negative = inhibition', 'inactive'),
  ('COC(=O)Cc1cc2c(c([N+](=O)[O-])c1)N(C(=O)CC[C@H](N)C(=O)O)CC2', 'Glutathione peroxidase 1 (Homo sapiens) (UniProt P07203)', 'activity, negative = inhibition', 'inactive'),
  ('C[C@@H]1C[C@@H](O)[C@@]23CO[C@@H](O)[C@@H]2CCC[C@@H]3[C@@]12C[C@@H](c1ccoc1)OC2=O', 'Glutathione peroxidase 1 (Homo sapiens) (UniProt P07203)', 'activity, negative = inhibition', 'inactive'),
  ('CCC(O)C(C)C1CCC(C(C)C(=O)O)O1 (stereo unspecified)', 'Glutathione peroxidase 1 (Homo sapiens) (UniProt P07203)', 'activity, negative = inhibition', 'inactive'),
  ('C/C=C/C=C/C=C/C(=O)OC1C=C(C=O)C(O)(C(=O)O)C2(C)CCCC(C)(C)C12 (stereo unspecified)', 'Glutathione peroxidase 1 (Homo sapiens) (UniProt P07203)', 'activity, negative = inhibition', 'inactive'),
  ('CC(=O)OC1CC2(C)C3=CCC4(C)C5C(O)C(O)C(C(C)C)C5(C)CCC4(C)C3CCC2C(C)(C)C1OC1OC(CO)C(O)C(O)C1O (stereo unspecified)', 'Glutathione peroxidase 1 (Homo sapiens) (UniProt P07203)', 'activity, negative = inhibition', 'inactive'),
  ('CC(=O)c1ccc(O[C@@H]2O[C@H](CO)[C@@H](O)[C@H](O)[C@H]2O)cc1', 'Glutathione peroxidase 1 (Homo sapiens) (UniProt P07203)', 'activity, negative = inhibition', 'inactive'),
  ('CCCCOC(=O)NC(=O)C1c2ccccc2Oc2ccccc21', 'Glutathione peroxidase 1 (Homo sapiens) (UniProt P07203)', 'activity, negative = inhibition', 'inactive'),
  ('C=C(C(=O)O)[C@H]1C[C@]2(C)[C@@H](O)CC[C@]23O[C@H]1C[C@@H]3C', 'Glutathione peroxidase 1 (Homo sapiens) (UniProt P07203)', 'activity, negative = inhibition', 'inactive');

Could you report activity, negative = inhibition for every entry in the following list?
1. O=C(O[C@H]1[C@@H]2C[C@@H]3OC[C@](O)([C@@H]1Cl)[C@H]2C(O[C@@H]1O[C@H](CO)[C@@H](O)[C@H](O)[C@H]1O)O3)c1ccc(O)c(O)c1 (stereo partly specified)
2. OC/C=C/c1ccc(O[C@@H]2O[C@H](CO)[C@@H](O)[C@H](O)[C@H]2O)cc1

inactive
inactive

Could you report activity, negative = inhibition for every entry in the following list?
1. C[C@@H]1O[C@@H](O[C@H]2[C@H](O)[C@@H](O)[C@H](OC3CCC4(C)C5CCC(C)(C(CO)OC6OC(CO)C(O)C(O)C6O)CC5=CCC4C3(C)C)O[C@@H]2CO)[C@H](O)[C@H](O)[C@H]1O (stereo partly specified)
2. CC1(C)C=CN2C(=O)C3=CCCN3C(=O)[C@@H]2C[C@@]12Nc1ccccc1C2=O
3. CCOc1cc2ncc(C#N)c(Nc3ccc(F)c(Cl)c3)c2cc1NC(=O)/C=C/CN(C)C

inactive
inactive
inactive

Could you report activity, negative = inhibition for every entry in the following list?
1. CCC(C)C(=O)OC1CC(O)C23C4OCC5(C(O)CC2C1(C)C(O)O4)C3C(=O)CC1(C)C(c2ccoc2)CC2OC215 (stereo unspecified)
2. C=C1CC[C@@H]2[C@](C)(CO[C@@H]3O[C@H](CO)[C@@H](O)[C@H](O)[C@H]3O)[C@H](O)CC[C@@]2(C)[C@@H]1C/C=C1/C(=O)OC[C@H]1O
3. CC(C)=CCC/C(C)=C/Cc1ccc(O)c(C2OC(=O)c3cc(C(=O)O)cc(O)c32)c1O (stereo unspecified)
4. C/C=C/c1ccc(O[C@@H]2O[C@H](CO)[C@@H](O)[C@H](O)[C@H]2O)c(OC)c1
5. Cc1ccc(Cc2c(C)nc3nc(SCC(=O)NCCN4CCNCC4)nn3c2C)cc1
6. CC[C@H](C)[C@H](NC(=O)[C@H]([C@@H](C)CC)N(C)C(C)=O)C(=O)N[C@H](C(=O)N[C@@H](CC(C)C)C(=O)[C@@]1(C)CO1)[C@@H](C)O
7. CC(C)CC(=O)O[C@@H]1OC=C(CO[C@@H]2O[C@H](CO)[C@@H](O)[C@H](O)[C@H]2O)[C@H]2[C@@H]3O[C@H]3[C@@](O)(CO)[C@@H]12

1. inactive
2. inactive
3. inactive
4. inactive
5. inactive
6. inactive
7. inactive

Could you report activity, negative = inhibition for every entry in the following list?
1. O=C(O)CC1CCC(c2ccc(-c3ccc4nc(C(=O)NCc5ccc(OC(F)(F)F)cc5)cn4c3)cc2)CC1 (stereo unspecified)
2. C[C@H](NC(c1cccc(C[P+](=O)O)c1)[C@H](C)O)c1ccc(Cl)c(Cl)c1 (stereo partly specified)
3. C=C1C(OC2OCC(O)C(O)C2O)CC2C(C)(C)C(O)CCC2(C)C1CC/C(C)=C\CO (stereo unspecified)
4. C=C1C(OC(=O)/C(C)=C\C)[C@@]23CCC4[C@@](C)(CCC[C@@]4(C)C(=O)O)C2CC[C@H]1C3OC(C)=O (stereo partly specified)
5. COC1C(=O)CCC2(CO2)C1(O)C1(C)OC1CC=C(C)C (stereo unspecified)

1. inactive
2. inactive
3. inactive
4. inactive
5. inactive

Could you report activity, negative = inhibition for every entry in the following list?
1. COC(=O)c1c(C)cc(OC(=O)c2c(C)cc(OC)cc2OC)cc1O[C@@H]1O[C@H](CO)[C@@H](O)[C@H](O)[C@H]1O
2. C=C(C)C1CC[C@]2(C(=O)O)CC[C@]3(C(=O)O)[C@H](CCC4[C@@]5(C)CC[C@H](O)C(C)(C)C5CC[C@]43C)C12 (stereo partly specified)
3. C[C@@H]1C(=O)OC[C@H]2C(C(=O)O)=C[C@@H]3CC(C)(C)C[C@]312
4. COC1=CC(=O)CC(C)C12Oc1cc(OC)cc(O)c1C2=O (stereo unspecified)

inactive
inactive
inactive
inactive
